EC50 overview
assay_target: 5-hydroxytryptamine receptor 2A (Rattus norvegicus)
Sequence (P14842 whole entry): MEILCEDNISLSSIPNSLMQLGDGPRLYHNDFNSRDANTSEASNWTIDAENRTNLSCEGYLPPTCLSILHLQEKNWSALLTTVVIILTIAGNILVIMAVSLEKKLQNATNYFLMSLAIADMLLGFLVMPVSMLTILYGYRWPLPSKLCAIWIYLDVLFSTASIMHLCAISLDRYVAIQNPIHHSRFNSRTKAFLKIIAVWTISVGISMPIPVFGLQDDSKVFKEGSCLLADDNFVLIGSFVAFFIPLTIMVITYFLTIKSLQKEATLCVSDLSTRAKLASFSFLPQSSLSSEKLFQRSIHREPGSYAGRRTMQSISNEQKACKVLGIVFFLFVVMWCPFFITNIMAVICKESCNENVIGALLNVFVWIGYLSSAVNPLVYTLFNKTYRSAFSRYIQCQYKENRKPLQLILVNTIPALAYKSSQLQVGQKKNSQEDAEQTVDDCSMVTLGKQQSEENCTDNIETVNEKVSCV
experiment_notes: Ability to stimulate phosphoinositide hydrolysis in NIH3T3 cells expressing the 5-hydroxytryptamine 2A receptor
Write it as a number; the unit µM goes unstated.

Here's what some known entries look like.
INSERT INTO assay_data (compound, reported_metric, measured) VALUES
  ('C[C@H](N)Cc1c2c(c(C(F)(F)F)c3c1OCC3)OCC2', 'EC50', 0.03),
  ('C[C@@H](N)Cc1c2c(c(C(F)(F)F)c3c1OCC3)OCC2', 'EC50', 0.028),
  ('C[C@H](N)Cc1c2ccoc2cc2ccoc12', 'EC50', 0.65),
  ('C[C@H](N)Cc1c2c(c(Br)c3c1OCC3)OCC2', 'EC50', 0.035);

Incoming: Any idea what EC50 was measured for C[C@H](N)Cc1c2c(cc3c1OCC3)OCC2 ?
Outgoing: 2.36

Incoming: Further, for C[C@H](N)Cc1c2ccoc2c(C(F)(F)F)c2ccoc12 ?
Outgoing: 0.012

Incoming: And the next one, C[C@@H](N)Cc1c2c(cc3c1OCC3)OCC2 ?
Outgoing: 5.65

From: ChEMBL document CHEMBL1134366
